From: ChEMBL document CHEMBL4689842

System: U2OS
experimental.details: Multiplex assay against U2OS
Type: toxicity, cell-based
reported.conditions: human, 48 h, 10 µM, compound concentration 10 uM, replicate 1
In this section we review reported Population Membrane Permeable-Phenotype (%) values for a set of molecules.
Could you give me the number in %? Just the number is fine.

Example molecules with recorded Population Membrane Permeable-Phenotype (%):
>>> experimental_result("CC(C)c1cc(Nc2nc(N3CCC[C@H](N)C3)ncc2C(N)=O)cc(C(C)C)n1")
100
>>> experimental_result("C[C@@H](Oc1cc(-n2cnc3ccc(CN4CCN(C)CC4)cc32)sc1C(N)=O)c1ccccc1C(F)(F)F [GSK-461364]")
100
>>> experimental_result("CN(c1cc(C(F)(F)F)nc(OCCC(=O)O)n1)c1cccc2c1CCC2")
2

Pending molecule:
Value of measured Population Membrane Permeable-Phenotype (%) for the entry CCCc1cc(C)[nH]c(=O)c1CNC(=O)c1cc(-c2ccc(N3CCN(C(C)C)CC3)nc2)cc2c1cnn2C(C)C : 89
